# target_of_assay: RAGE (sRAGE) binding to Carboxymethyl Lysine (CML) (Homo sapiens)
# Construct: extracellular domain can be isolated by proteolysis of RAGE to generate soluble RAGE (sRAGE) comprised of the V and C domains
# Sequence (Q15109 23-342 limits assumed): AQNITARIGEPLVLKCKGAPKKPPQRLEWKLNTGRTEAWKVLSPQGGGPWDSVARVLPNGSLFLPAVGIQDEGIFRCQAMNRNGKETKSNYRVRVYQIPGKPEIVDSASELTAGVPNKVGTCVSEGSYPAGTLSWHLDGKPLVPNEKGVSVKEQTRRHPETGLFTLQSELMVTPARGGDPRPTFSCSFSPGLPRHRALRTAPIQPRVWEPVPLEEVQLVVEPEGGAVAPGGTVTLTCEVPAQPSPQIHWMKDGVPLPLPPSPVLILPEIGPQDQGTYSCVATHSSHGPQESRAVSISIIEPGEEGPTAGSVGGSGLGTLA
# protocol: ELISA assay: inhibition of sRAGE binding to plate-bound CML
# condition_info: ligand CML coated on plate, concentration at which 50% signal has been inhibited
Quick list: IC50 per entry.

Record excerpt, results attached:
{"compound": "CCCCOc1cc(OCCCN(CC)CC)ccc1NC(=O)C(CC1CCN(C(=O)OCc2ccccc2)CC1)NC(=O)OCC1c2ccccc2-c2ccccc21 (stereo not shown)", "IC50": "0.5 to 1 µM"}
{"compound": "CCN(CC)CCCOc1ccc(NC(=O)CC(N)c2ccccc2OC(C)(C)C)c(OCCCN(CC)CC)c1 (stereo not shown)", "IC50": "1 to 5 µM"}
{"compound": "CCCCOc1cc(OCCCN(CC)CC)ccc1NC(=O)C(N)CC1CCN(Cc2ccccc2)CC1 (stereo not shown)", "IC50": "10 to 20 µM"}
{"compound": "CCN(CC)CCCOc1ccc(NC(=O)CC(N)c2cccc(OC(C)(C)C)c2)c(OCCCN(CC)CC)c1 (stereo not shown)", "IC50": "1 to 5 µM"}
{"compound": "CCN(CC)CCCOc1ccc(NC(=O)CC(NC(C)C)c2cccc(OC(C)(C)C)c2)c(OCCCN(CC)CC)c1 (stereo not shown)", "IC50": "0.5 to 1 µM"}

Ask: Looking for the measured IC50 of CCCCOc1cc(OCCCN(CC)CC)ccc1NC(=O)C(CC1CCCN(C(=O)OC(C)(C)C)C1)NC(=O)OCC1c2ccccc2-c2ccccc21 (stereo not shown) , can you help?
Reply: 1 to 5 µM

Ask: Can you look up the measured IC50 of CCN(CC)CCCOc1ccc(NC(=O)CC(NC(=O)OCC2c3ccccc3-c3ccccc32)c2ccccc2OC(C)(C)C)c(OCCCN(CC)CC)c1 (stereo not shown) for me?
Reply: 1 to 5 µM

Ask: What does the data say about its IC50? Entry: CCCCN(C(=O)[C@H](N)Cc1ccc(OCc2ccccc2)cc1)c1cccc(OCCCN(CC)CC)c1
Reply: 1 to 5 µM

Ask: IC50 for CCCCOc1cc(OCCCN(CC)CC)ccc1NC(=O)C(CC1CCN(C(=O)c2ccccc2)CC1)NC(=O)c1ccccc1 (stereo not shown) ?
Reply: 1 to 5 µM

Ask: For CCCCN(C(=O)[C@@H](Cc1ccc(OCc2ccccc2)cc1)NC(=O)OC(C)(C)C)c1ccc(OCCCN(CC)CC)cc1 , what is its reported IC50?
Reply: 1 to 5 µM

Ask: Would you kindly share the measured IC50 for CCN(CC)CCCOc1ccc(N(CC2CCCC2)C(=O)[C@@H](Cc2ccc(OCc3ccccc3)cc2)NC(=O)OC(C)(C)C)cc1 ?
Reply: 1 to 5 µM

Ask: Which IC50 value is on record for CCN(CC)CCCOc1ccc(N(CC2CCCC2)C(=O)[C@H](N)Cc2ccc(OCc3ccccc3)cc2)cc1 ?
Reply: 10 to 20 µM

Ask: Bench note: what IC50 did CCN(CC)CCCOc1ccc(NC(=O)CC(NC(=O)OCC2c3ccccc3-c3ccccc32)c2cccc(OC(C)(C)C)c2)c(OCCCN(CC)CC)c1 (stereo not shown) show?
Reply: 0.5 to 1 µM

Ask: // IC50 lookup, key: CCCCOc1cc(OCCCN(CC)CC)ccc1NC(=O)C(CC1CCCNC1)NC(=O)OCC1c2ccccc2-c2ccccc21 (stereo not shown)
Reply: 0.5 to 1 µM

Ask: I am curious: what IC50 value has been reported for CCCCN(C(=O)[C@H](N)Cc1ccc(OCc2ccccc2)cc1)c1ccc(OCCCN(CC)CC)cc1 ?
Reply: 1 to 5 µM

Ask: Using the record for CCCCOc1cc(C(=O)OCCN(CC)CC)ccc1NC(=O)[C@@H](Cc1ccc(OCc2ccccc2)cc1)n1ccnc1 , report its IC50.
Reply: 1 to 5 µM

Ask: Recorded IC50 of CCN(CC)CCCOc1ccc(NC(=O)CC(N)c2ccc(OC(C)(C)C)cc2)c(OCCCN(CC)CC)c1 (stereo not shown) , please.
Reply: 1 to 5 µM

Ask: Please give the measured IC50 for this compound: CCCCOc1cc(OCCCN(CC)CC)ccc1NC(=O)C(CC1CCN(Cc2ccccc2)CC1)NC(=O)OCC1c2ccccc2-c2ccccc21 (stereo not shown)
Reply: < 0.5 µM

Ask: Returns the measured IC50 for the input compound. Input: CCCCN(C(=O)[C@@H](Cc1ccc(OCc2ccccc2)cc1)NC(=O)OC(C)(C)C)c1cccc(OCCCN(CC)CC)c1
Reply: 1 to 5 µM
